molecular target: ZmDRIK1-K217-S514 (Zea mays); construct: kinase domain, K217-S514; assay: biochemical; conditions: read-out: dTm B, sheet ZmDRIK1-K217-S514;; DSF, Boltzmann fit, 0.1% DMSO
testReadout: ΔTm at 10 µM (°C)

Previously resolved entries follow.
- compoundSmiles: "OCCn1cc(-c2cnc3nnn(Cc4ccc5ncccc5c4)c3n2)cn1"
  testReadout: "ΔTm at 10 µM"
  readoutValue: -0.0615
- compoundSmiles: "O=C1NC(=O)/C(=C/c2ccc3nccc(-c4ccncc4)c3c2)S1"
  testReadout: "ΔTm at 10 µM"
  readoutValue: -0.279
- compoundSmiles: "CC[C@H](Nc1ncnc2[nH]cnc12)c1nc2cccc(F)c2c(=O)n1-c1ccccc1"
  testReadout: "ΔTm at 10 µM"
  readoutValue: -0.31

[P] CN(C)Cc1cccc(N/C(=C2\C(=O)Nc3cc(C(N)=O)ccc32)c2ccccc2)c1
[Q] Cc1nc(NC(=O)N2CCC[C@H]2C(N)=O)sc1-c1csc(C(C)(C)C)n1
[R] COc1ccc(-c2ccc3ncc4c(c3c2)n(-c2ccc(N3CCNCC3)c(C(F)(F)F)c2)c(=O)n4C)cn1
[S] CS(=O)(=O)c1ccc(-c2cnc(N)c(C(=O)Nc3ccccc3)n2)cc1
[T] O=C(c1ccc(Nc2nccc(-c3cc4ccccc4s3)n2)cc1)N1CCC(N2CCCC2)CC1
Give the ascending ranking of the items by reported ΔTm at 10 µM. Field: ranking. Enter the labels in the order requested.
S, Q, P, T, R
(S: -0.669 °C, Q: -0.323 °C, P: -0.0855 °C, T: 0.121 °C, R: 0.245 °C)

----------
biological target: ZmDRIK1-R187-P492 (Zea mays, UniProt C0P4K9); construct: kinase domain, R187-P492; assay: biochemical; details: read-out: dTm B, DSF, Boltzmann fit, 0.1% DMSO
testReadout: ΔTm at 10 µM (°C)

Previously resolved entries follow.
- compoundSmiles: "COc1cc2ncc(-c3ccccc3)nc2cc1OC"
  testReadout: "ΔTm at 10 µM"
  readoutValue: -0.166
- compoundSmiles: "NC(=O)c1ccc(N(C(N)=O)c2c(F)cccc2F)nc1-c1ccc(F)cc1F"
  testReadout: "ΔTm at 10 µM"
  readoutValue: -0.499
- compoundSmiles: "Cc1ccc(S(=O)(=O)/C=C/C#N)cc1"
  testReadout: "ΔTm at 10 µM"
  readoutValue: -1.15

[P] COC(=O)Nc1ccc(-c2nc(N3CCOCC3)c3cnn(C4CCN(C(=O)OC)CC4)c3n2)cc1
[Q] CCS(=O)(=O)Nc1ccc2c(c1)/C(=C(/Nc1ccc(CN3CCCCC3)cc1)c1ccccc1)C(=O)N2
Between P and Q , which one shows the smaller ΔTm at 10 µM number? Answer format: the label of the selected item.
Q

----------
biological target: ZmDRIK1-K217-S514 (Zea mays); construct: kinase domain, K217-S514; test: biochemical; conditions: read-out: dTm B, sheet ZmDRIK1-K217-S514;; DSF, Boltzmann fit, 0.1% DMSO
testReadout: ΔTm at 10 µM (°C)

- compoundSmiles: "O=C(Nc1ccc(OC(F)(F)F)cc1)c1sccc1NCc1ccnc2ccccc12"
  readoutValue: -5.53
- compoundSmiles: "Cc1nc(NC(=O)N2CCC[C@H]2C(N)=O)sc1-c1ccnc(C(C)(C)C(F)(F)F)c1"
  readoutValue: -0.465

[A] Cc1nc(Nc2ncc(C(=O)Nc3c(C)cccc3Cl)s2)cc(N2CCN(CCO)CC2)n1
[B] O=c1cc(N2CCOCC2)oc2c(-c3cccc4c3sc3ccccc34)cccc12
Sort A and B by ΔTm at 10 µM descending and give the first. Answer format: the label of the selected item.
A

----------
target: ZmDRIK1-R187-P492 (Zea mays, UniProt C0P4K9); construct: kinase domain, R187-P492; experiment: biochemical; conditions: read-out: dTm B, DSF, Boltzmann fit, 0.1% DMSO
testReadout: ΔTm at 10 µM (°C)

- compoundSmiles: "CC(C)NC[C@@H](C(=O)N1CCN(c2ncnc3c2[C@H](C)C[C@H]3O)CC1)c1ccc(Cl)cc1"
  unitsSymbol: "°C"
  readoutValue: -0.352
- compoundSmiles: "O=C(Cc1ccc(-c2ccc(OCCN3CCOCC3)cc2)cn1)NCc1ccccc1"
  unitsSymbol: "°C"
  readoutValue: -0.338

[a] Cn1cnc2c(F)c(Nc3ccc(Br)cc3F)c(C(=O)NOCCO)cc21
[b] C[C@@H]1COC(Nc2ccc3ncnc(Nc4ccc(OCc5nccs5)c(Cl)c4)c3c2)=N1
Sort a and b by ΔTm at 10 µM descending and give the first. Answer format: the label of the selected item.
a
(a: -0.189 °C, b: -0.314 °C)

----------
molecular target: ZmDRIK1 (DROUGHT RESPONSIVE INACTIVE KINASE 1), kinase domain (Zea mays, UniProt C0P4K9); construct: gene ZEAMMB73_Zm00001d028770; ZmDRIK1-KD R187-S514 (kinase domain); experiment: biochemical; details: read-out: dTm B, sheet ZmDRIK1-R187-S514;; DSF, Boltzmann fit, 0.1% DMSO
Sequence (C0P4K9 187-514): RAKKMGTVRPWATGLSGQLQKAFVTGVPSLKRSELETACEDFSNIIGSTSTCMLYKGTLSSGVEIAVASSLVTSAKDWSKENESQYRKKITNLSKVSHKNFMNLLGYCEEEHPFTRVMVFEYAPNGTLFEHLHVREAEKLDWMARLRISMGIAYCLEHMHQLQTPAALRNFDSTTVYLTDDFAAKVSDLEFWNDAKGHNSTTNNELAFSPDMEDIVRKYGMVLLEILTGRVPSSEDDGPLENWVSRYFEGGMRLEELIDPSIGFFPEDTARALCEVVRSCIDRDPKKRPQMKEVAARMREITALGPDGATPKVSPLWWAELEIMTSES
testReadout: ΔTm at 10 µM (°C)

Previously resolved entries follow.
- compound: "Nc1cccc(-c2cc3c(Oc4cccc(O)c4)ncnc3[nH]2)c1"
  ΔTm at 10 µM, °C: -0.75
- compound: "C[C@@H](N)[C@H]1CC[C@H](C(=O)Nc2ccncc2)CC1 [Y-27632 2HCl]"
  ΔTm at 10 µM, °C: -0.584

[a] NC(=O)c1ccc(N(C(N)=O)c2c(F)cccc2F)nc1-c1ccc(F)cc1F
[b] CN1CCN(CCOc2cc(OC3CCOCC3)c3c(Nc4c(Cl)ccc5c4OCO5)ncnc3c2)CC1
Sort a and b by ΔTm at 10 µM descending and give the first. Answer format: the label of the selected item.
a
(a: -0.444 °C, b: -0.646 °C)

----------
biological target: ZmDRIK1-K217-S514 (Zea mays, UniProt C0P4K9); construct: kinase domain, K217-S514; experiment: biochemical; details: read-out: dTm B, sheet ZmDRIK1-K217-S514;; DSF, Boltzmann fit, 0.1% DMSO
Sequence (C0P4K9 1-514): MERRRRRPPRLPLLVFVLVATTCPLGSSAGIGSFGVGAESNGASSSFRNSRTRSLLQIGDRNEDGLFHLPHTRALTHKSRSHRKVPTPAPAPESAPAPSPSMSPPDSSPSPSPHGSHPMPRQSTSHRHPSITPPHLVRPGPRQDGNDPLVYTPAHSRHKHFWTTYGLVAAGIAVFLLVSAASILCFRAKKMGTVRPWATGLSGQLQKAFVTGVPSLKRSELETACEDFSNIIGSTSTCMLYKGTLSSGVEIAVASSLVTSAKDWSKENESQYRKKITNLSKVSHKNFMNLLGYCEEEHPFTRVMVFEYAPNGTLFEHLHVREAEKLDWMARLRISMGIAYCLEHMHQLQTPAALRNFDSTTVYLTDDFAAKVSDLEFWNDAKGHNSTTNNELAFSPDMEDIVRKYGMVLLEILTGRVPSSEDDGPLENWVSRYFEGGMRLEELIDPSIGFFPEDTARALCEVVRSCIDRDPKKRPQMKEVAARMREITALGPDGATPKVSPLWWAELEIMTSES
testReadout: ΔTm at 10 µM (°C)

Previously resolved entries follow.
- compound: "COc1ccc(-c2cc3c(C)nc(N)nc3n([C@H]3CC[C@H](OCCO)CC3)c2=O)cn1"
  unitsSymbol: "°C"
  readoutValue: -0.31
- compound: "CNC(=O)c1ccccc1Sc1ccc2c(/C=C/c3ccccn3)n[nH]c2c1"
  unitsSymbol: "°C"
  readoutValue: -0.335
- compound: "CCN(CC)CCCC(C)Nc1nc(C)cc(Nc2ccc3nc(C)cc(N)c3c2)n1 (stereo not shown)"
  unitsSymbol: "°C"
  readoutValue: -0.555

[P] CN(C)CCCn1cc(C2=C(c3c[nH]c4ccccc34)C(=O)NC2=O)c2ccccc21 [GF109203X]
[Q] NC(=O)Nc1sc(-c2ccc(F)cc2)cc1C(N)=O
[R] CN(C)C/C=C/C(=O)Nc1cc2c(Nc3ccc(F)c(Cl)c3)ncnc2cc1O[C@H]1CCOC1
[S] COc1ccccc1-c1cc(Nc2cccc(CS(N)(=O)=O)c2)ncn1
[T] Cc1cc(Nc2cc(N3CCN(C)CC3)nc(/C=C/c3ccccc3)n2)n[nH]1
# desc sort on ΔTm at 10 µM across 5 compounds Field: ranking. Enter the labels in the order requested.
T, S, Q, P, R

[P] CN1CCN(C2CCN(C(=O)Nc3cc(Oc4ccc(NC(=O)C5(C(=O)Nc6ccc(F)cc6)CC5)c(F)c4)ccn3)CC2)CC1 [Golvatinib (E7050)]
[Q] C=CC(=O)Nc1cccc(Nc2nc(Nc3ccc(N4CCN(C(C)=O)CC4)cc3OC)ncc2C(F)(F)F)c1
[R] C[C@]1(O)C[C@@H](c2nc(-c3ccc4ccc(-c5ccccc5)nc4c3)c3c(N)nccn32)C1
# desc sort on ΔTm at 10 µM across 3 compounds Field: ranking. Enter the labels in the order requested.
P, Q, R
(P: -0.278 °C, Q: -0.448 °C, R: -0.681 °C)

----------
target: ZmDRIK1-R187-P492 (Zea mays, UniProt C0P4K9); construct: kinase domain, R187-P492; assay: biochemical; settings: read-out: dTm B, DSF, Boltzmann fit, 0.1% DMSO
Structures can show the parent of a compound that is named as a salt.
testReadout: ΔTm at 10 µM (°C)

- compound: "Cn1cc(C2=C(c3cn(C4CCN(Cc5ccccn5)CC4)c4ccccc34)C(=O)NC2=O)c2ccccc21 [Enzastaurin (LY317615)]"
  testReadout: "ΔTm at 10 µM"
  unitsSymbol: "°C"
  readoutValue: -0.261
- compound: "CN1CCC(c2c(O)cc(O)c3c(=O)cc(-c4ccccc4Cl)oc23)C1CO (centres unmarked) [P276-00]"
  testReadout: "ΔTm at 10 µM"
  unitsSymbol: "°C"
  readoutValue: -0.274
- compound: "O=C(NOCC(O)CO)c1cc(Br)c(F)c(F)c1Nc1ccc(I)cc1F (centres unmarked) [PD318088]"
  testReadout: "ΔTm at 10 µM"
  unitsSymbol: "°C"
  readoutValue: 0.042
- compound: "Cc1cc(C)nc(NS(=O)(=O)c2ccc(NC(=S)NC(=O)COc3ccc(Br)cc3Cl)cc2)n1 [ZCL278]"
  testReadout: "ΔTm at 10 µM"
  unitsSymbol: "°C"
  readoutValue: -0.134
- compound: "O=C(O)c1ccc(Nc2ncc3c(n2)-c2ccc(Cl)cc2C(c2c(F)cccc2F)=NC3)cc1 [MLN8054]"
  testReadout: "ΔTm at 10 µM"
  unitsSymbol: "°C"
  readoutValue: -0.341
- compound: "Oc1c2ccccc2c2c3c(cccc13)N=N2 [SP600125]"
  testReadout: "ΔTm at 10 µM"
  unitsSymbol: "°C"
  readoutValue: -0.115
- compound: "CS(=O)(=O)c1cccc(CNc2nc(Nc3ccc4c(c3)CCC(=O)N4)ncc2C(F)(F)F)c1 [PF-573228]"
  testReadout: "ΔTm at 10 µM"
  unitsSymbol: "°C"
  readoutValue: 0.148
- compound: "COc1cc(N2CCC(N)CC2)ccc1Nc1ncc(Cl)c(-c2c[nH]c3ccccc23)n1 [AZD3463]"
  testReadout: "ΔTm at 10 µM"
  unitsSymbol: "°C"
  readoutValue: 0.74
- compound: "CCNc1nc(Nc2cc(F)c(C(=O)N3CCOCC3)cc2OC)ncc1C(F)(F)F [GNE-7915]"
  testReadout: "ΔTm at 10 µM"
  unitsSymbol: "°C"
  readoutValue: -0.506
- compound: "O=C1NC(=O)/C(=C/c2ccc3c(c2)OC(F)(F)O3)S1 [AS-604850]"
  testReadout: "ΔTm at 10 µM"
  unitsSymbol: "°C"
  readoutValue: -0.284

[a] COc1cc2c(Oc3ccc(NC(=O)C4(C(=O)Nc5ccc(F)cc5)CC4)cc3F)ccnc2cc1OCCCN1CCOCC1 [Foretinib (GSK1363089)]
[b] Cc1cc(CN2CCN(c3c(Br)cnc4nc(-c5ccc(N6CCN(C)CC6)cc5)[nH]c34)CC2)no1 [CCT137690]
[c] C#Cc1cccc(Nc2ncnc3cc(OCCOC)c(OCCOC)cc23)c1 [Erlotinib HCl (OSI-744)]
[d] Cc1cnc(NC(=O)Nc2cc(Br)c(C)cc2OC[C@@H]2CNCCO2)cn1 [LY2603618]
[e] NC1(c2ccc(-c3nc4ccn5c(=O)[nH]nc5c4cc3-c3ccccc3)cc2)CCC1 [MK-2206 2HCl]
Give the ascending ranking of the items by reported ΔTm at 10 µM. Field: ranking. Enter the labels in the order requested.
d, c, b, e, a

[P] Cc1ccc(NC(=O)c2cccc(N(C)C)c2)cc1NC(=O)c1ccc(O)cc1 [ZM 336372]
[Q] N#Cc1c(NC(=O)c2cccc3ccccc23)sc2c1CCCC2 [JNK Inhibitor IX]
Sort P and Q by ΔTm at 10 µM descending and give the first. Answer format: the label of the selected item.
P
